# test name: Stability of ITZA/POSA in solvent vehicles (HPLC)
# Type: physicochemical
# test conditions: H3D/sal., day 1
property measured: stability of ITZA (%)
The reply should contain only the number, in %.

stability of ITZA reported for this molecule CCC(C)n1ncn(-c2ccc(N3CCN(c4ccc(OCC5COC(Cn6cncn6)(c6ccc(Cl)cc6Cl)O5)cc4)CC3)cc2)c1=O (stereo not shown) : 107

---

# test name: Maximum solubility of ITZA and azole analogues in solvents (HPLC)
# Format: physicochemical
# test conditions: solvent K, organic solvent or mixture, thermodynamic from solid, solvent K, RT; read-out: Maximum solubility
property measured: solubility (mg/mL)
Record the value in mg/mL, omitting the unit from your answer.

// recorded solubility for CCC(C)n1ncn(-c2ccc(N3CCN(c4ccc(OCC5COC(Cn6cncn6)(c6ccc(Cl)cc6Cl)O5)cc4)CC3)cc2)c1=O (stereo not shown) : 11.1

---

# test name: Stability of ITZA/POSA in solvent vehicles (HPLC)
# Assay type: physicochemical
# test conditions: H3D/sal., day 4
property measured: stability of ITZA (%)
Supply the numeric figure in %, leaving out any unit text.

compound CCC(C)n1ncn(-c2ccc(N3CCN(c4ccc(OCC5COC(Cn6cncn6)(c6ccc(Cl)cc6Cl)O5)cc4)CC3)cc2)c1=O (stereo not shown) [ITZA, itraconazole] , stability of ITZA observed: 102

---

# test name: Stability of ITZA/POSA in solvent vehicles (HPLC)
# Assay type: physicochemical
# test conditions: H3G, day 5
property measured: stability of ITZA
The answer should read as a number with its unit following.

Item: CCC(C)n1ncn(-c2ccc(N3CCN(c4ccc(OCC5COC(Cn6cncn6)(c6ccc(Cl)cc6Cl)O5)cc4)CC3)cc2)c1=O (stereo not shown) [ITZA, itraconazole] | stability of ITZA: 106%

---

# test name: Stability of ITZA/POSA in solvent vehicles (HPLC)
# Assay type: physicochemical
# test conditions: H3G/sal., day 0
property measured: stability of ITZA (%)
Unit % implied. Number only.

Entry under test: CCC(C)n1ncn(-c2ccc(N3CCN(c4ccc(OCC5COC(Cn6cncn6)(c6ccc(Cl)cc6Cl)O5)cc4)CC3)cc2)c1=O (stereo not shown) . Its stability of ITZA was 100

---

# test name: Stability of ITZA/POSA in solvent vehicles (HPLC)
# Format: physicochemical
# test conditions: H3G, day 4
property measured: stability of ITZA
Respond with a number, then the unit of measure.

Please fill in: stability of ITZA reported for CCC(C)n1ncn(-c2ccc(N3CCN(c4ccc(OCC5COC(Cn6cncn6)(c6ccc(Cl)cc6Cl)O5)cc4)CC3)cc2)c1=O (stereo not shown) = 103%

---

# test name: Maximum solubility of ITZA and azole analogues in solvents (HPLC)
# Type: physicochemical
# test conditions: organic solvent or mixture, thermodynamic from solid, solvent H3G (no benzyl alcohol); read-out: Azole solubility, Average mg/mL
# Procedure: ITZA and its analogues were dissolved in various solvents incubated at 37° C. for 30 minutes, cooled down to room temperature, centrifuged at 14,000 rpm for 1 min. The supernatant was analyzed using HPLC to determine the maximum solubility of ITZA and its azole analogues. In a first step the maximum ITZA solubility in various single solvents was determined. […] The supernatant was analyzed using HPLC to determine the maximum solubility of the respective agent. […]
This listing pairs compounds with measured solubility at 30 min.
Please reply with the bare figure in mg/mL and do not write the unit itself.

OC(Cn1cncn1)(Cn1cncn1)c1ccc(F)cc1F: 30.3

Next compound, please.
Record CC(=O)N1CCN(c2ccc(OCC3COC(Cn4ccnc4)(c4ccc(Cl)cc4Cl)O3)cc2)CC1 (centres unmarked) , field solubility at 30 min: 14.9
